- Test system: Plasma
- experimental.details: Plasma protein binding in human
- Type: ADME, cell-free

molecule.smiles: CCC(C)(C)C(=O)Nc1cccc(NC(=O)c2ccccc2Br)c1
system.tested: Plasma
PPB (%): 95
--
molecule.smiles: CCS(=O)(=O)Nc1cccc(NC(=O)c2ccccc2Br)c1
system.tested: Plasma
PPB (%): 93
--
molecule.smiles: CN(C(=O)c1ccccc1Br)c1cccc(NC(=O)C2CCCC2)c1
system.tested: Plasma
PPB (%): 95
--
molecule.smiles: Cc1ccccc1C(=O)Nc1cccc(NC(=O)CC(C)C)c1
system.tested: Plasma
PPB (%): 96
--
molecule.smiles: CCCC(=O)Nc1cccc(N(C)C(=O)c2ccccc2Br)c1
system.tested: Plasma
PPB (%): 89
--
molecule.smiles: CCS(=O)(=O)N1CCCc2ccc(NC(=O)c3ccccc3Br)cc21
system.tested: Plasma
PPB (%): 98
--
molecule.smiles: CCCCNc1cccc(NC(=O)c2ccccc2Br)c1
system.tested: Plasma
PPB (%): 97
--
molecule.smiles: CC(C)CC(=O)Nc1cccc(NC(=O)c2ccccc2Br)c1
system.tested: Plasma
PPB (%): 93
--
molecule.smiles: CCCC(=O)Nc1cccc(NC(=O)c2ccccc2Br)c1
system.tested: Plasma
PPB (%): 97
--
molecule.smiles: O=C(Nc1cccc(N2CCCCC2=O)c1)c1ccccc1Br
system.tested: Plasma
PPB (%): 82
--
molecule.smiles: CCCC(=O)N(C)c1cccc(NC(=O)c2ccccc2Br)c1
system.tested: Plasma
PPB (%): 98
--
molecule.smiles: CCOC(=O)Nc1cccc(NC(=O)c2ccccc2Br)c1
system.tested: Plasma
PPB (%): 95

----------
Recorded PPB values for a group of compounds are listed next.
- Tested on: Plasma
- experimental.details: Plasma protein binding in mouse
- Format: ADME, cell-free
measurement.kind: PPB (%)

molecule.smiles: O=C(Nc1cccc(N2CCCS2(=O)=O)c1)c1ccccc1Br
measurement.kind: PPB
measured: 76
//
molecule.smiles: CCOC(=O)Nc1cccc(NC(=O)c2ccccc2Br)c1
measurement.kind: PPB
measured: 87
//
molecule.smiles: CN(C(=O)c1ccccc1Br)c1cccc(NC(=O)C2CCCC2)c1
measurement.kind: PPB
measured: 90
//
molecule.smiles: CC(=O)N1CCCc2ccc(NC(=O)c3ccccc3Br)cc21
measurement.kind: PPB
measured: 89
//
molecule.smiles: Cc1ccccc1C(=O)Nc1cccc(NC(=O)CC(C)C)c1
measurement.kind: PPB
measured: 83
//
molecule.smiles: CC(C)CC(=O)Nc1cccc(NC(=O)c2ccccc2Br)c1
measurement.kind: PPB
measured: 87
//
molecule.smiles: O=C(Nc1cccc(N2CCCCC2=O)c1)c1ccccc1Br
measurement.kind: PPB
measured: 72
//
molecule.smiles: CCCC(=O)N(C)c1cccc(NC(=O)c2ccccc2Br)c1
measurement.kind: PPB
measured: 85
//
molecule.smiles: CCS(=O)(=O)Nc1cccc(NC(=O)c2ccccc2Br)c1
measurement.kind: PPB
measured: 69
//
molecule.smiles: CCS(=O)(=O)N1CCCc2ccc(NC(=O)c3ccccc3Br)cc21
measurement.kind: PPB
measured: 96
//
molecule.smiles: CCCCNc1cccc(NC(=O)c2ccccc2Br)c1
measurement.kind: PPB
measured: 96

----------
- Test system: Plasma
- experimental.details: Metabolic stability in human plasma assessed as compound remaining at 5 uM after 5 hrs
- Assay type: ADME, cell-free

molecule.smiles: CCCC(=O)N(C)c1cccc(NC(=O)c2ccccc2Br)c1
comparator: =
Stability (%): 90

molecule.smiles: CCS(=O)(=O)N1CCCc2ccc(NC(=O)c3ccccc3Br)cc21
comparator: >
Stability (%): 99

molecule.smiles: O=C(Nc1cccc(N2CCCCC2=O)c1)c1ccccc1Br
comparator: =
Stability (%): 94

molecule.smiles: CCCCS(=O)(=O)Nc1cccc(NC(=O)c2ccccc2Br)c1
comparator: =
Stability (%): 97

----------
- Tested on: Plasma
- experimental.details: Metabolic stability in human plasma assessed as compound remaining at 5 uM after 5 hrs
- Assay type: ADME, cell-free

molecule.smiles: O=C(Nc1cccc(N2CCCS2(=O)=O)c1)c1ccccc1Br
Stability: > 99%
--
molecule.smiles: CN(C(=O)c1ccccc1Br)c1cccc(NC(=O)C2CCCC2)c1
Stability: 64%
--
molecule.smiles: CCCC(=O)Nc1cccc(N(C)C(=O)c2ccccc2Br)c1
Stability: 19%
--
molecule.smiles: CC(=O)N1CCCc2ccc(NC(=O)c3ccccc3Br)cc21
Stability: 92%
--
molecule.smiles: CCC(C)(C)C(=O)Nc1cccc(NC(=O)c2ccccc2Br)c1
Stability: > 99%
--
molecule.smiles: CCCC(=O)Nc1cccc(NC(=O)c2ccccc2Br)c1
Stability: 80%
--
molecule.smiles: CCCCNc1cccc(NC(=O)c2ccccc2Br)c1
Stability: 99%
--
molecule.smiles: CC(C)CC(=O)Nc1cccc(NC(=O)c2ccccc2Br)c1
Stability: 90%
--
molecule.smiles: CCCC(=O)Nc1cccc(NCc2ccccc2Br)c1
Stability: 73%
--
molecule.smiles: Cc1ccccc1C(=O)Nc1cccc(NC(=O)CC(C)C)c1
Stability: > 99%
--
molecule.smiles: CCOC(=O)Nc1cccc(NC(=O)c2ccccc2Br)c1
Stability: 85%
--
molecule.smiles: CCS(=O)(=O)Nc1cccc(NC(=O)c2ccccc2Br)c1
Stability: 99%

----------
- system.tested: Proteinase-activated receptor 1 (Homo sapiens)
- experimental.details: Inhibition of SFLLRN-NH2-stimulated PAR1-mediated platelet activation in […] assessed as surface expression of P-selectin after 20 mins by flow cytometry
Label Y when IC50 is strictly below 700 nM; otherwise label N.

molecule.smiles: Cc1ccccc1C(=O)Nc1cccc(NC(=O)CC(C)C)c1
assigned.category: N

molecule.smiles: CCCC(=O)Nc1cccc(NC(=O)c2c(C)cccc2C)c1
assigned.category: N

molecule.smiles: CCCC(=O)Nc1cccc(NC(=O)c2cc(F)ccc2Br)c1
assigned.category: Y

molecule.smiles: CCCCNc1cccc(NC(=O)c2ccccc2Br)c1
assigned.category: Y

molecule.smiles: CCCC(=O)Nc1cccc(NC(=O)c2cc(C)ccc2Br)c1
assigned.category: Y

molecule.smiles: CCCC(=O)Nc1cccc(NC(=O)c2ccc(F)cc2Br)c1
assigned.category: Y

molecule.smiles: CCCC(=O)Nc1cccc(NC(=O)c2ccccc2C)c1
assigned.category: N

molecule.smiles: CCCC(=O)Nc1cccc(NC(=O)c2cc(Cl)ccc2Br)c1
assigned.category: Y

molecule.smiles: CCCC(=O)Nc1cccc(NC(=O)c2c(Cl)cccc2Br)c1
assigned.category: N

molecule.smiles: CCCNC(=O)c1cccc(NC(=O)c2ccccc2Cl)c1
assigned.category: N

----------
- Tested on: Plasma
- experimental.details: Metabolic stability in mouse plasma assessed as compound remaining at 5 uM after 5 hrs
- Format: ADME, cell-free
Rule: Satisfied for Stability not less than 60%, Not satisfied for anything less.

molecule.smiles: O=C(Nc1cccc(N2CCCCC2=O)c1)c1ccccc1Br
assigned.category: Satisfied
//
molecule.smiles: CCCCS(=O)(=O)Nc1cccc(NC(=O)c2ccccc2Br)c1
assigned.category: Satisfied
//
molecule.smiles: O=C(Nc1cccc(N2CCCS2(=O)=O)c1)c1ccccc1Br
assigned.category: Satisfied
//
molecule.smiles: CCCC(=O)Nc1cccc(NCc2ccccc2Br)c1
assigned.category: Not satisfied
//
molecule.smiles: CCCC(=O)N(C)c1cccc(NC(=O)c2ccccc2Br)c1
assigned.category: Satisfied
//
molecule.smiles: CCS(=O)(=O)N1CCCc2ccc(NC(=O)c3ccccc3Br)cc21
assigned.category: Satisfied
//
molecule.smiles: CCC(C)(C)C(=O)Nc1cccc(NC(=O)c2ccccc2Br)c1
assigned.category: Satisfied
//
molecule.smiles: CCCC(=O)Nc1cccc(NC(=O)c2ccccc2Br)c1
assigned.category: Not satisfied
//
molecule.smiles: CCCC(=O)Nc1cccc(N(C)C(=O)c2ccccc2Br)c1
assigned.category: Not satisfied
//
molecule.smiles: CC(C)C(=O)Nc1cccc(NC(=O)c2ccccc2Br)c1
assigned.category: Satisfied
//
molecule.smiles: O=C(Nc1cccc(NC(=O)C2CCCC2)c1)c1ccccc1Br
assigned.category: Not satisfied
//
molecule.smiles: CCOC(=O)Nc1cccc(NC(=O)c2ccccc2Br)c1
assigned.category: Not satisfied
//
molecule.smiles: CC(=O)N1CCCc2ccc(NC(=O)c3ccccc3Br)cc21
assigned.category: Satisfied
//
molecule.smiles: Cc1ccccc1C(=O)Nc1cccc(NC(=O)CC(C)C)c1
assigned.category: Satisfied
//
molecule.smiles: CN(C(=O)c1ccccc1Br)c1cccc(NC(=O)C2CCCC2)c1
assigned.category: Not satisfied
//
molecule.smiles: CC(C)CC(=O)Nc1cccc(NC(=O)c2ccccc2Br)c1
assigned.category: Satisfied
//
molecule.smiles: CCS(=O)(=O)Nc1cccc(NC(=O)c2ccccc2Br)c1
assigned.category: Satisfied
//
molecule.smiles: CCCCNc1cccc(NC(=O)c2ccccc2Br)c1
assigned.category: Satisfied

----------
- system.tested: Proteinase-activated receptor 1 (Homo sapiens, UniProt P25116)
- Sequence (P25116 whole entry): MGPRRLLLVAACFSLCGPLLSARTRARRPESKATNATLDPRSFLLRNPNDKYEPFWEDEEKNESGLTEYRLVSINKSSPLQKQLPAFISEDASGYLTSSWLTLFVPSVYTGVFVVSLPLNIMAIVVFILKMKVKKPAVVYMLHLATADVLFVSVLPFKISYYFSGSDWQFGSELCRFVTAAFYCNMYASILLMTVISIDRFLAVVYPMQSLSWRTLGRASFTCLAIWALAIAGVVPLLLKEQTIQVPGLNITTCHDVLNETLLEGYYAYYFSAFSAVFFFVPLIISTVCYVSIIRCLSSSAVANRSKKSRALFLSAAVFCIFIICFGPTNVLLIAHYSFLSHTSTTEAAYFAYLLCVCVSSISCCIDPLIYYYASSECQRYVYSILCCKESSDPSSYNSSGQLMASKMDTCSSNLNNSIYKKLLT
- experimental.details: Inhibition of SFLLRN-NH2-stimulated PAR1-mediated platelet activation in […] assessed as surface expression of P-selectin after 20 mins by flow cytometry
pIC50: −log10 of the molar value.
pIC50 for assorted compounds

molecule.smiles: CCCC(=O)Nc1cccc(NC(=O)c2ccccc2Cl)c1
pIC50: 5.96

molecule.smiles: CCOC(=O)Nc1cccc(NC(=O)c2ccccc2Br)c1
pIC50: 5.58

molecule.smiles: CCCC(=O)Nc1cccc(NC(=O)c2cccc(Cl)c2Cl)c1
pIC50: 5.51

molecule.smiles: CC(C)C(=O)Nc1cccc(NC(=O)c2ccccc2Br)c1
pIC50: 5.85

molecule.smiles: CC(C)CC(=O)Nc1cccc(NC(=O)c2ccccc2Br)c1
pIC50: 6.54

molecule.smiles: CCC(=O)Nc1cccc(NC(=O)c2ccccc2Br)c1
pIC50: 5.77

molecule.smiles: CCCC(=O)Nc1cccc(NC(=O)c2cccc(-c3ccccc3)c2)c1
pIC50: 5.66

molecule.smiles: O=C(Nc1cccc(NC(=O)C2CCCC2)c1)c1ccccc1Br
pIC50: 6.28

molecule.smiles: CCCC(=O)Nc1cccc(NC(=O)c2ccccc2Br)c1
pIC50: 6.59

molecule.smiles: CCCC(=O)Nc1cccc(NC(=O)c2ccccc2F)c1
pIC50: 6.01

molecule.smiles: CCCC(=O)Nc1cccc(NC(=O)c2ccccc2CC)c1
pIC50: 6.28

molecule.smiles: CCCC(=O)Nc1cccc(NC(=O)c2ccccc2C(F)(F)F)c1
pIC50: 5.89
